- experimental protocol: Cytotoxicity against human THP1 cells after 24 hrs by lactate dehydrogenase assay
- Type: cell-based
- conditions: THP-1 cells, read-out: LD50
Recorded measurements of CC50 at 24 h, one per entry

> print(dat)
                              entry.smiles  measured.metric   result
1         O=C(Nc1cccc(F)c1)c1ccc2ccccc2c1O     CC50 at 24 h  > 10 µM
2            O=C(Nc1ccccc1)c1ccc2ccccc2c1O     CC50 at 24 h  > 20 µM
3         O=C(Nc1ccc(F)cc1)c1ccc2ccccc2c1O     CC50 at 24 h  > 10 µM
4  O=C(Nc1ccc(C(F)(F)F)cc1)c1ccc2ccccc2c1O     CC50 at 24 h   0.6 µM
5        O=C(Nc1ccc(Cl)cc1)c1ccc2ccccc2c1O     CC50 at 24 h  > 20 µM

Next compound, CC50 at 24 h to be filled in.
Query :: Respond only with CC50 at 24 h recorded for O=C(Nc1cccc(Br)c1)c1ccc2ccccc2c1O
Result :: > 20 µM

###

- experimental protocol: Lipophilicity, log K of the compound by RP-HPLC analysis
- Type: physicochemical
measured metric: log K
Answer using only a numeral; do not append any unit.

> print(dat)
                              entry.smiles  readout.number
1  O=C(Nc1ccc(C(F)(F)F)cc1)c1ccc2ccccc2c1O          1.1158
2         O=C(Nc1ccc(F)cc1)c1ccc2ccccc2c1O          1.0533
3        O=C(Nc1ccc(Cl)cc1)c1ccc2ccccc2c1O          1.1314
4          O=C(Nc1ccccc1Cl)c1ccc2ccccc2c1O          0.8764
5  O=C(Nc1cccc(C(F)(F)F)c1)c1ccc2ccccc2c1O           1.127
6        O=C(Nc1cccc(Br)c1)c1ccc2ccccc2c1O          1.1784
7        COc1cccc(NC(=O)c2ccc3ccccc3c2O)c1          1.2849
8         O=C(Nc1cccc(F)c1)c1ccc2ccccc2c1O          1.0763

Query :: Respond only with log K recorded for O=C(Nc1ccccc1)c1ccc2ccccc2c1O
Result :: 1.2302

Query :: Respond only with log K recorded for O=C(Nc1ccccc1F)c1ccc2ccccc2c1O
Result :: 0.8296

###

- experimental protocol: Lipophilicity, log K of the compound by RP-HPLC analysis
- Format: physicochemical
measured metric: log K
Answer using only a numeral; do not append any unit.

> print(dat)
                               entry.smiles  measured.metric  readout.number
1  O=C(Nc1ccccc1[N+](=O)[O-])c1ccc2ccccc2c1O            log K          0.5014
2           O=C(Nc1ccccc1Br)c1ccc2ccccc2c1O            log K          0.9234
3          Cc1ccc(NC(=O)c2ccc3ccccc3c2O)cc1            log K          1.4008
4         COc1ccc(NC(=O)c2ccc3ccccc3c2O)cc1            log K          1.1882

Query :: Respond only with log K recorded for O=C(Nc1ccc(Br)cc1)c1ccc2ccccc2c1O
Result :: 1.1224

Query :: Respond only with log K recorded for Cc1cccc(NC(=O)c2ccc3ccccc3c2O)c1
Result :: 1.4254

Query :: Respond only with log K recorded for Cc1ccccc1NC(=O)c1ccc2ccccc2c1O
Result :: 1.1176

Query :: Respond only with log K recorded for O=C(Nc1cccc(Cl)c1)c1ccc2ccccc2c1O
Result :: 1.1615

Query :: Respond only with log K recorded for O=C(Nc1cccc([N+](=O)[O-])c1)c1ccc2ccccc2c1O
Result :: 0.6609

Query :: Respond only with log K recorded for COc1ccccc1NC(=O)c1ccc2ccccc2c1O
Result :: 1.4716

Query :: Respond only with log K recorded for O=C(Nc1ccccc1C(F)(F)F)c1ccc2ccccc2c1O
Result :: 0.6899

Query :: Respond only with log K recorded for O=C(Nc1ccc([N+](=O)[O-])cc1)c1ccc2ccccc2c1O
Result :: 0.5298

###

- Test system: Mycolicibacterium smegmatis
- experimental protocol: Antimycobacterial activity against Mycobacterium smegmatis ATCC 700084 after 3 days by two-fold serial dilution method
- Assay type: functional
- conditions: ATCC 700084, 72 h
Recorded measurements of MIC, one per entry

> print(dat)
                               entry.smiles    result
1          Cc1ccc(NC(=O)c2ccc3ccccc3c2O)cc1    923 µM
2         O=C(Nc1cccc(Br)c1)c1ccc2ccccc2c1O  > 748 µM
3          Cc1cccc(NC(=O)c2ccc3ccccc3c2O)c1   57.7 µM
4  O=C(Nc1ccccc1[N+](=O)[O-])c1ccc2ccccc2c1O  > 830 µM
5            Cc1ccccc1NC(=O)c1ccc2ccccc2c1O    231 µM

Query :: Respond only with MIC recorded for O=C(Nc1ccc(Cl)cc1)c1ccc2ccccc2c1O
Result :: 215 µM

Query :: Respond only with MIC recorded for O=C(Nc1cccc(Cl)c1)c1ccc2ccccc2c1O
Result :: > 860 µM

Query :: Respond only with MIC recorded for O=C(Nc1ccccc1Br)c1ccc2ccccc2c1O
Result :: > 748 µM

Query :: Respond only with MIC recorded for O=C(Nc1ccc(C(F)(F)F)cc1)c1ccc2ccccc2c1O
Result :: > 748 µM

Query :: Respond only with MIC recorded for O=C(Nc1cccc(F)c1)c1ccc2ccccc2c1O
Result :: 910 µM

###

- Test system: Mycobacterium kansasii
- experimental protocol: Antimycobacterial activity against Mycobacterium kansasii DSM 44162 after 7 days by two-fold serial dilution method
- Type: functional
- conditions: DSM 44162, 168 h
measured metric: log10 of MIC (log10 of the value in µM)
Short version: log10 scale, MIC, µM.

As a guide, the following entries are already answered.
> print(dat)
                               entry.smiles             test.system  readout.number
1         O=C(Nc1ccc(Br)cc1)c1ccc2ccccc2c1O  Mycobacterium kansasii            1.37
2  O=C(Nc1ccc([N+](=O)[O-])cc1)c1ccc2ccccc2c1O  Mycobacterium kansasii            1.72

Query :: Respond only with log10 of MIC recorded for O=C(Nc1cccc(F)c1)c1ccc2ccccc2c1O
Result :: 1.45

Query :: Respond only with log10 of MIC recorded for O=C(Nc1ccccc1Cl)c1ccc2ccccc2c1O
Result :: 2.93

Query :: Respond only with log10 of MIC recorded for O=C(Nc1cccc(Cl)c1)c1ccc2ccccc2c1O
Result :: 1.43

Query :: Respond only with log10 of MIC recorded for Cc1cccc(NC(=O)c2ccc3ccccc3c2O)c1
Result :: 1.46

Query :: Respond only with log10 of MIC recorded for O=C(Nc1ccc(Cl)cc1)c1ccc2ccccc2c1O
Result :: 1.43

Query :: Respond only with log10 of MIC recorded for O=C(Nc1ccc(F)cc1)c1ccc2ccccc2c1O
Result :: 1.15

###

- Tested on: Mycobacterium kansasii
- experimental protocol: Antimycobacterial activity against Mycobacterium kansasii DSM 44162 after 7 days by two-fold serial dilution method
- Assay type: functional
- conditions: DSM 44162, 168 h
measured metric: MIC

As a guide, the following entries are already answered.
> print(dat)
                        entry.smiles    result
1  COc1cccc(NC(=O)c2ccc3ccccc3c2O)c1  > 873 µM
2    O=C(Nc1ccccc1Br)c1ccc2ccccc2c1O  > 748 µM
3  O=C(Nc1cccc(Br)c1)c1ccc2ccccc2c1O  > 748 µM

Query :: Respond only with MIC recorded for COc1ccccc1NC(=O)c1ccc2ccccc2c1O
Result :: > 873 µM

Query :: Respond only with MIC recorded for O=C(Nc1ccccc1[N+](=O)[O-])c1ccc2ccccc2c1O
Result :: > 830 µM

Query :: Respond only with MIC recorded for O=C(Nc1cccc(C(F)(F)F)c1)c1ccc2ccccc2c1O
Result :: > 748 µM

###

Recorded measurements of CC50 at 24 h, one per entry
- experimental protocol: Cytotoxicity against human THP1 cells after 24 hrs by lactate dehydrogenase assay
- Assay type: cell-based
- conditions: THP-1 cells, read-out: LD50

> print(dat)
                                   compound   result
1  CC[C@@]1(O)C(=O)OCc2c1cc1n(c2=O)Cc2cc3ccccc3nc2-1 [CAMPTOTHECIN]  0.16 µM
2     O=C(Nc1ccccc1C(F)(F)F)c1ccc2ccccc2c1O  > 20 µM
3   O=C(Nc1cccc(C(F)(F)F)c1)c1ccc2ccccc2c1O     1 µM

Query :: Respond only with CC50 at 24 h recorded for Cc1cccc(NC(=O)c2ccc3ccccc3c2O)c1
Result :: > 20 µM

###

- Test system: Mycolicibacterium smegmatis
- experimental protocol: Antimycobacterial activity against Mycobacterium smegmatis ATCC 700084 after 3 days by two-fold serial dilution method
- Format: functional
- conditions: ATCC 700084, 72 h
measured metric: MIC

Query :: Respond only with MIC recorded for O=C(Nc1ccccc1)c1ccc2ccccc2c1O
Result :: 243 µM

Query :: Respond only with MIC recorded for O=C(Nc1ccc([N+](=O)[O-])cc1)c1ccc2ccccc2c1O
Result :: > 830 µM

Query :: Respond only with MIC recorded for O=C(Nc1cccc(C(F)(F)F)c1)c1ccc2ccccc2c1O
Result :: > 748 µM

Query :: Respond only with MIC recorded for O=C(Nc1ccc(Br)cc1)c1ccc2ccccc2c1O
Result :: 46.7 µM

Query :: Respond only with MIC recorded for O=C(Nc1cccc([N+](=O)[O-])c1)c1ccc2ccccc2c1O
Result :: > 830 µM
